# Tested on: Staphylococcus aureus
# procedureText: Antibacterial activity against Staphylococcus aureus assessed as total inhibition of cell growth/spore germination after 24 hrs
# Assay type: functional
measuredProperty: MIC (µg/mL)

Some solved cases for reference:
>>> observed("CCCCCCc1c(O)cc(CCCCC)cc1O")
7
>>> observed("CCCCCCc1c(O)cc(CCC)cc1O")
3
>>> observed("CCCCc1c(O)cc(CCC)cc1O")
5

I. CCCCCCc1c(O)cc(C)cc1O
II. CN[C@@H]1[C@H](O[C@H]2[C@H](O[C@H]3[C@H](O)[C@@H](O)[C@H](N=C(N)N)[C@@H](O)[C@@H]3N=C(N)N)O[C@@H](C)[C@]2(O)C=O)O[C@@H](CO)[C@H](O)[C@H]1O
[ask] When I and II are compared, which has the higher number for MIC? # answer = label of selected item
[reply] II
(II: 10 µg/mL, I: 2 µg/mL)
